assay: Antagonist activity at CXCR2 in human neutrophils assessed as reduction in GRO-alpha mediated chemotaxis
property.label: pIC50
Just so you know, pIC50 here is -log10 of the concentration in molar units; reply with that number alone.

QUERY: Reported pIC50, compound COC(=O)CSc1ccc(C(=O)Nc2ccc(F)cc2)cn1 : ____
RESULT: 7.38
